Measured values drawn from paper PMC2994747 for this set.

# System: A2C12
# method description: MTS cell viability assay
# Format: cell-based, mouse
# details: 96 h, read-out: Calculated IC50 after daily treatment for 96 h
endpoint label: IC50 (µM)
Give just the number in µM; leave the unit off.

- CSc1nc(NCc2ccccc2)c2cnn(CC(Cl)c3ccc(Cl)cc3)c2n1 (stereo not shown): 9.2
- Fc1ccc(C(Cl)Cn2ncc3c(Nc4cccc(Cl)c4)ncnc32)cc1 (stereo not shown): 6.5
- CSc1nc(Nc2cccc(F)c2)c2cnn(CC(Cl)c3ccc(F)cc3)c2n1 (stereo not shown): 6.5

Looking up CSc1nc(NCc2ccccc2)c2cnn(CC(Cl)c3ccccc3)c2n1 (stereo not shown) , I found its IC50 recorded as 8.3

Looking up CCCCNc1nc(SCC)nc2c1cnn2CC(Cl)c1ccccc1 (stereo not shown) , I found its IC50 recorded as 11.3

Looking up CSc1nc(NCc2ccccc2)c2cnn(CC(Br)c3ccccc3)c2n1 (stereo not shown) , I found its IC50 recorded as 12.1

Looking up CSc1nc(NCCc2ccc(Cl)cc2)c2cnn(CC(Cl)c3ccccc3)c2n1 (stereo not shown) , I found its IC50 recorded as 5.4

Looking up CSc1nc(NCCc2ccccc2)c2cnn(CC(Cl)c3ccc(F)cc3)c2n1 (stereo not shown) , I found its IC50 recorded as 6.9

Looking up CSc1nc(NCc2ccccc2)c2cnn(CC(Cl)c3ccc(F)cc3)c2n1 (stereo not shown) , I found its IC50 recorded as 8.6

Looking up `CSc1nc(NCCc2ccccc2)c2cnn(C=Cc3ccccc3)c2n1` , I found its IC50 recorded as 7

Looking up Fc1ccccc1CNc1ncnc2c1cnn2CC(Cl)c1ccc(Br)cc1 (stereo not shown) , I found its IC50 recorded as 2.1
